Reference source: PubChem BioAssay (NCI)

system: COLO 205 colon; test: NCI-60 one-dose screen, 48 h (100 = growth as untreated, 0 = no growth, -100 = all killed); conditions: 10 µM unless noted
Compounds without any hit were thinned out: in the full panel of roughly 83,000, 20% have a hit. Activity calls are given as the source filed them. The calls were made as follows: active = growth percent below 10; inactive = the rest.
Known growth of a selection of molecules

{"columns": ["molecule", "quantity-kind", "result"],
 "data": [
  ["COc1ccc(C2c3ccc4ccccc4c3Oc3ncnc(N)c32)cc1 (stereo unspecified)", "growth", "94.5% (inactive)"],
  ["O=[N+]([O-])c1cccc(C2CC(c3ccccc3)=Nc3ccccc3S2)c1 (stereo unspecified)", "growth", "98.9% (inactive)"],
  ["O=C1C(=O)N(CCCCn2cc(CO)nn2)c2ccccc21", "growth", "111% (inactive)"]
]}

Exam item: Give the measured growth of CS(=O)(CCCCN=C=S)=NC(=O)c1c(F)c(F)c(F)c(F)c1F (stereo unspecified) .
Marked response: 89.4% (inactive)

Exam item: Give the measured growth of Cn1c(=O)c2[nH]c(C(O)C(O)C(O)C(O)CO)nc2n(C)c1=O (stereo unspecified) .
Marked response: 103% (inactive)

Exam item: Give the measured growth of NCCN1CCN(c2nccc(-c3ccc4ccccc4c3)n2)CC1 .
Marked response: -78.1% (active)
